Tested on: MDA-MB-468 breast
testMethodNotes: NCI tumour cell line growth inhibition, 48 h
Please note: Y applies when TGI is 10 µM or greater, and N applies otherwise.

# count of solved cases: 3
chemicalSmiles | targetSystem | class
CNC[C@@H](NC(=O)c1ccc(-c2nc([C@H]3CC[C@H](O)[C@@H](F)C3)cnc2N)cc1F)c1cc(F)cc(Br)c1 | MDA-MB-468 breast | Y
COC(=O)[C@@H](C)C[C@H](Cc1ccccc1)NC(=O)c1nc([C@@H](C[C@H](C(C)C)N(C)C(=O)[C@@H](NC(=O)[C@H]2CCCCN2C)C(C)C)OC(C)=O)sc1C(C)C | MDA-MB-468 breast | N
O=c1[nH]c2c3ccncc3cc(-c3cccc(Cl)c3)c2c2cnccc12 | MDA-MB-468 breast | Y

Does TGI meet or surpass 10 µM for "C=C(C)[C@@H]1CC[C@]2(C)[C@H](CC[C@@H]3[C@@H]([C@@](C)(O)CCC=C(C)C)CC[C@]32C)[C@@]1(C)CCC(=O)N1CCN(C)CC1" ?
Y

Does TGI meet or surpass 10 µM for "N=C(N)c1ccc(-c2ccc(-c3cccs3)o2)cc1" ?
N

Does TGI meet or surpass 10 µM for "O=C(C1CC1)N1CC[C@@H](Cc2n[nH]c(=O)n2-c2ccc(-c3ccc4occc4c3)cc2)C1" ?
Y

Reference for the values: PubChem BioAssay (NCI)
